MEASUREMENT_PROTOCOL: method code SF-HPLC, from DOI: 10.1002/jps.2600840622
CONDITION: pH 7.0
ASSAY_METRIC: logD
Reply with the value as a number alone.

Entry under test: CCCN1CCN(c2cc3c(cc2F)c(=O)c(C(=O)O)cn3CC)CC1 . Its logD was 1.05

====

Item-by-item account of logP

Before answering, review these 2 worked examples.
c1ccc2c(c1)ccc1cc3ccc4ccccc4c3cc12 6.84
C1=Cc2cccc3cccc1c23 4.07

Let's switch to this compound now.
Entry under test: c1ccc2c(c1)-c1ccc3ccc4cccc5cc-2c1c3c45 . Its logP was 6.58
